Experiment: soluble fraction after stress (log2 fold change); higher = more stays soluble; pooled small domains, quantitative proteomics
Conditions: stress: 50 degC
# if value of soluble fraction (log2) reaches -0.2, tag class 1; if it stays below, tag class 0

Worked examples follow.
| query sequence | class label |
| --- | --- |
| HMTIPSYAEAVRYVRRQPRINTSTLADGLGIRWSLALDYLERMARSGVVGAIEDDGWWPVAR | class 0 |
| HMIETLGDATFKRLKAMILDGTLEPGTRLSEKKFADHLGVSRTPVREAIGQLVSEGLAKRSAGSAPVVSS | class 1 |
| HMEVGVSGTVFNTDSLNVRKGPGTNFDTVTSLKRGSVVEVFEQSAVDGTVWGRIANGWVNMQYVSL | class 1 |
| HMSQLLHELLAHVLKDRIISGEWPAGSRIMSEHALQERYGVSRGTVRRALAQLVQEGLLVQRKGKGTFVTR | class 0 |
| HMYKSSRASKSEVNKFLKFIIQSLDKRGFLQPGHKRQSMIRNIENIFYRTNLSDQEIRILLGIFSTLNK | class 0 |

query: Quick check: does HMAYVDWYENKQPTHEEAFKKLLGRIHPGAIVLLHSTSKTNGEILDELLTKWEEMGYRFGTLDELTGN have soluble fraction (log2) greater than or equal to -0.2?
result: class 0

query: Quick check: does HMQQIQILPDGKIKLPDLSGTNMREAIEILHKGGLRMKPYGSGNAYQQKPAAGETVASGTTVEVLSL have soluble fraction (log2) greater than or equal to -0.2?
result: class 1

query: Quick check: does HMRNSSLQTDLELRAYVIDGLNHFWTPEEIAGRWSLAHPDRPVSFATIYRHIKRKLLPGIEPKTHLRRRGK have soluble fraction (log2) greater than or equal to -0.2?
result: class 0

query: Quick check: does HMSYTWHDMYLLAQEYQKEHGNLIIPRNYKGKNGLNLGYWLYKEKLKYRQGKLAPEKIIALEHIGIVWT have soluble fraction (log2) greater than or equal to -0.2?
result: class 0

query: Quick check: does HMQQEPNFYIVDGNTNQIVDRYYAPDSNVAHQYLGQWRQQHDPQETGNYRYGRLSSETEERYRNLAA have soluble fraction (log2) greater than or equal to -0.2?
result: class 1

* * *

Test: soluble fraction after stress (log2 fold change); higher = more stays soluble; pooled small domains, quantitative proteomics
Conditions: stress: 50 degC
Reported soluble fraction (log2) values are given for each entry in this list.

| query sequence | soluble fraction (log2) |
| --- | --- |
| HMWAQSVSLHGLLGRQALLIVDGKPPRAVAPGQTHLGVTVLSTDEDRAVVALAGGQRLTLRVGESPVSVG | -0.0812 |
| HMVPLTPGELVGTEVRVLWWKEGRGEVIASSRGHQLTLEAHSEDPLRAGSTAVVLEAADDVLVVTS | -0.569 |

Turning now to a further sequence:
query: # input sequence: HMKPVPPLNGTSLRDLALGYAGRYATTAARLKHYLQRKLRERGWGGEDEPDLDGLVARLVELGYVNDEVF ; wanted: its soluble fraction (log2)
result: -0.102

* * *

Assay: soluble fraction after stress (log2 fold change); higher = more stays soluble; pooled small domains, quantitative proteomics
Conditions: stress: 50 degC
measured endpoint: soluble fraction (log2)
Give your answer as a number; write no unit.

Worked examples follow.
| query sequence | soluble fraction (log2) |
| --- | --- |
| HMSPSLVEAMRLRMYEMGLNQAKLSELLGVSPSRVSDYLTGRSEPTLKVARDISRKLNIDASIVLG | -1.07 |
| HMGMEENLLKERKQILMDIMKSKEYQPMKVKELAMVLNVPKEDREELRYVLNELMNEGKIVESKKGKFSIA | 0.177 |
| HMAEQEELDAIRPDLDGQEIMDILGIKPGREVGAARNFLLELRLDEGPLGYDEAVSRLLTWWAERT | -0.13 |
| HMLAMHVVESVGGAEQFTKLQNFAKTQNADYQKMWNDTMNSGNVLAIKTMLSGIQSDMIAVQ | -0.16 |

query: # input sequence: HMPYNRRYLISNADGALYTVEENGLVKLEETNLTAELFETRGMQDIPDGKLLITLHDPTILYWHDSENLFP ; wanted: its soluble fraction (log2)
result: -1.19

query: # input sequence: HMTNVFSIIGKKALVIKDIDPIHSSGQIKLNGEVWSAETENDEIIKEGSEVEVLKINGVKAIVKLV ; wanted: its soluble fraction (log2)
result: -0.107

query: # input sequence: HMTDSDTQDIDVGELRVGHFVFLDLSWIRHPFPLSSFKIQSAEQIKTIRSLGLRRIRYSPGRSGP ; wanted: its soluble fraction (log2)
result: -1.18

* * *

Test: soluble fraction after stress (log2 fold change); higher = more stays soluble; pooled small domains, quantitative proteomics
Settings: stress: 50 degC
# if value of soluble fraction (log2) reaches -0.09, tag true; if it stays below, tag false

| query sequence | class label |
| --- | --- |
| HMFEKVKLTLTIPSKYSGSTYSALRNRMNKFSKEEWLSNGDLKIEIEVTGGQKTDIYTLINKLTNGEAIIE | false |

query: Quick check: does HMRAEPNSNYSLAIIYKNRYDIAVKKKDAVKEVEYGKMVYEYLNKYVVLSGNKSAKYKKILNYFSSY have soluble fraction (log2) greater than or equal to -0.09?
result: false

query: Quick check: does HMNQTEKSKITHNELLKAAHSLFIEQGFNHTTITDIVTRAGYSTGIFYKHYKTKTDILVELWTNYIE have soluble fraction (log2) greater than or equal to -0.09?
result: false

query: Quick check: does HMTTMNSADLIKELEKAGWTLRGVKGSHHIYTHPARGGHLSVPHPKKDLGAGLARQLRKQAGL have soluble fraction (log2) greater than or equal to -0.09?
result: true

query: Quick check: does HMAHSDEAWSVARRVARELDKILDGAGPRRTALVRAAAELRLSTRQIYNLLARYRADRTVTSLLPRR have soluble fraction (log2) greater than or equal to -0.09?
result: false

query: Quick check: does HMNVEKLREMYPEGTKIILQEMQGESRMAKGLKGTVTHVDDAGQIHMKWENGSSLVLNVEVDTFKKIE have soluble fraction (log2) greater than or equal to -0.09?
result: true

* * *

Assay: soluble fraction after stress (log2 fold change); higher = more stays soluble; pooled small domains, quantitative proteomics
Settings: stress: 50 degC
# if value of soluble fraction (log2) reaches -0.01, tag fulfilled; if it stays below, tag not fulfilled

| query sequence | class label |
| --- | --- |
| HMENQGEDMRQQVKALVNADKTNITKLATATGYSRSTISMYLAGNYKGDVEAVERRLEEYMKTQG | not fulfilled |
| HMNPGAYQVKAGEGLIGLSRRYNVPVDVLASVNNLNTTSSLRVGQTITIPTAAQVNRITQQAQ | fulfilled |
| HMDSEEVYQMTKHKMDAAQISVAKRIHINLVLVKLLELHHLGYDLRHYHAQHHAFIKRLNLPEYFRFD | not fulfilled |
| HMVDDTGLPTVLISDGRLLERNLHRLHLDHTWLQRRLEENNIPSIQSLFLLTVDKQHQLYFLKK | not fulfilled |
| HMHHIDTAWFRGKMREHRLTQEAVGQAIGLERSMVSKIIKGTVSFNARKASAWAQLLRVSESEILERVGI | not fulfilled |
| HMATVTVPNLKGMTPSGAESALAELNLKGAVGDSVESNDVENGKVASQDQAAGSDAKEGDTITYHLSS | fulfilled |

query: Quick check: does HMDLHERISSVLLGTGKSNDELAQILGVNKNTISAYKNKHGDLKGIVLEGIVKHFDINPVWLLTGSGTR have soluble fraction (log2) greater than or equal to -0.01?
result: not fulfilled

* * *

Reported soluble fraction (log2) values are given for each entry in this list.
Test: soluble fraction after stress (log2 fold change); higher = more stays soluble; pooled small domains, quantitative proteomics
Conditions: stress: 50 degC
Give your answer as a number; write no unit.

| query sequence | soluble fraction (log2) |
| --- | --- |
| HMLSYFKIIKNGLVREGPASYYKIAENLEIGTIVQAFEKHDDWYLIKTHSGRIGWIVASDVTPQV | -0.245 |

query: # input sequence: HMKINVQETEVYRYLLERADRLYSMILGEERENLMERTRFFEKEVAKASLPHLPKLYDEFSIYLDRLERG ; wanted: its soluble fraction (log2)
result: -0.138

query: # input sequence: HMIVLPGEELEVHIVQEGKEDGQGVAYLDDGTMVVVEGGRPYVDSFAYVAVTRVLQTGAGRIIFAHPTR ; wanted: its soluble fraction (log2)
result: -0.832

query: # input sequence: HMVEVPNVIGMTKPELTQQFVNLKLDGSGEGDVVVQQSPSEGSKVKEGSTVRVYFG ; wanted: its soluble fraction (log2)
result: 0.0119

query: # input sequence: HMSTDNINYKNILIASLLIHAAKIDENYTENEKNIIKKALIELDEIDSKKADEIMILAEKKE ; wanted: its soluble fraction (log2)
result: -0.221

query: # input sequence: HMIDMQIDTARFGTLGVDDDKIITFPKGLPGFEDERRFFLMDHSGSSKIKWLHSADNPGLALV ; wanted: its soluble fraction (log2)
result: -0.0658

The origin of these recorded values is the domain aggregation screens of Martell et al. (2025).
